target or test system: human V1a receptor (Homo sapiens, UniProt P37288)
Sequence (P37288 whole entry): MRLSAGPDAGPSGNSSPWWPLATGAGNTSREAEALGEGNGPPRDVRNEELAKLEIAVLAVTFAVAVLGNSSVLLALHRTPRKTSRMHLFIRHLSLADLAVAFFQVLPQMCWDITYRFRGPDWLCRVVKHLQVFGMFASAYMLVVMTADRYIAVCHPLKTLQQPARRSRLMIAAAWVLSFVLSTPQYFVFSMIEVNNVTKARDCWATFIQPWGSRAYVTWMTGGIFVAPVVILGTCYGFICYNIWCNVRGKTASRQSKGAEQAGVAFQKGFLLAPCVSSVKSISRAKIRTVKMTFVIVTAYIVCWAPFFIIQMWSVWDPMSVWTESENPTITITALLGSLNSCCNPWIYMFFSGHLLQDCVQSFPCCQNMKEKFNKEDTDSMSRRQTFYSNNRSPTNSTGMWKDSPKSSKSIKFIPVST
assay name: Cellular in vitro assay for determining vasopressin receptor activity (V1a, aequorin luminescence)
condition context: CHO cell line transfected with the human V1a receptor; [Arg8]-vasopressin at EC50 concentration; read-out: IC50 hV1a
Where a name gives a salt, the structure may show the parent alone.
Measured IC50 of individual entries
The reply should contain only the number, in nM.

compound: CCNC(=O)OCc1nc(Cn2nc(-c3ccc(Cl)cc3)n(C[C@H](O)C(F)(F)F)c2=O)nn1-c1ccccc1Cl
quantity measured: IC50
obs value: 0.43

Record "C[C@H](OC(N)=O)c1nc(Cn2nc(-c3ccc(Cl)cc3)n(C[C@H](OC(N)=O)C(F)(F)F)c2=O)nn1-c1ccccc1Cl" , field IC50: 0.64

Record "C[C@H](OC(N)=O)c1nc(Cn2nc(-c3ccc(Cl)cc3)n(C[C@H](O)C(F)(F)F)c2=O)nn1-c1ccccc1S(N)(=O)=O" , field IC50: 31.5

Record O=C1NC(c2nc(Cn3nc(-c4ccc(Cl)cc4)n(C[C@H](O)C(F)(F)F)c3=O)nn2-c2ncccc2OC(F)(F)F)CO1 (single isomer, unassigned) [Example 119] , field IC50: 57

Record COc1ccccc1-n1nc(Cn2nc(-c3ccc(Cl)cc3)n(C[C@H](OC(N)=O)C(F)(F)F)c2=O)nc1C(C)OC(N)=O (single isomer, unassigned) [Example 42] , field IC50: 1.08

Record "CNC(=O)OCc1nc(Cn2nc(-c3ccc(Cl)cc3)n(C[C@H](O)C(F)(F)F)c2=O)nn1-c1cccc(F)c1" , field IC50: 6.47

Record CC(=O)NC(CO)c1nc(Cn2nc(-c3ccc(Cl)cc3)n(C[C@H](O)C(F)(F)F)c2=O)nn1-c1ccccc1Cl (mixture of isomers) [Example 91] , field IC50: 0.71

Record CC(NS(C)(=O)=O)c1nc(Cn2nc(-c3ccc(Cl)cc3)n(C[C@H](O)C(F)(F)F)c2=O)nn1-c1ccccc1Cl (single isomer, unassigned) [Example 68] , field IC50: 0.97

Record CC(N)c1nc(Cn2nc(-c3ccc(Cl)cc3)n(C[C@H](O)C(F)(F)F)c2=O)nn1-c1ncccn1 (mixture of isomers) [Example 128, hydrochloride] , field IC50: 94.5

Record O=C1NC(c2nc(Cn3nc(-c4ccc(Cl)cc4)n(C[C@H](O)C(F)(F)F)c3=O)nn2-c2ncccc2Cl)CO1 (single isomer, unassigned) [Example 114] , field IC50: 22.7

Record CN1C(=O)CCC1c1nc(Cn2nc(-c3ccc(Cl)cc3)n(C[C@H](O)C(F)(F)F)c2=O)nn1-c1ccccc1Cl (single isomer, unassigned) [Example 71] , field IC50: 0.7

Record CC(NS(C)(=O)=O)c1nc(Cn2nc(-c3ccc(Cl)cc3)n(C[C@H](O)C(F)(F)F)c2=O)nn1-c1ccccc1Cl (mixture of isomers) [Example 67] , field IC50: 0.83

Record O=C1NC(c2nc(Cn3nc(-c4ccc(Cl)cc4)n(C[C@H](O)C(F)(F)F)c3=O)nn2-c2ncccc2OC(F)(F)F)CO1 (single isomer, unassigned) [Example 118] , field IC50: 17

Record "NC(=O)OCc1nc(Cn2nc(-c3ccc(Cl)cc3)n(C[C@H](O)C(F)(F)F)c2=O)nn1-c1ccccc1Cl" , field IC50: 0.43

Record CC(N)c1nc(Cn2nc(-c3ccc(Cl)cc3)n(C[C@H](O)C(F)(F)F)c2=O)nn1-c1cccc(F)c1 (single isomer, unassigned) [Example 55] , field IC50: 18

Record "C[C@@H](OC(N)=O)c1nc(Cn2nc(-c3ccc(Cl)cc3)n(C[C@H](O)C(F)(F)F)c2=O)nn1-c1ccccc1OC(F)(F)F" , field IC50: 0.85

Record CC(N)c1nc(Cn2nc(-c3ccc(Cl)cc3)n(C[C@H](O)C(F)(F)F)c2=O)nn1-c1ccccc1Cl (single isomer, unassigned) [Example 61] , field IC50: 0.45

Record CC(N)c1nc(Cn2nc(-c3ccc(Cl)cc3)n(C[C@H](O)C(F)(F)F)c2=O)nn1-c1ncccc1Cl (mixture of isomers) , field IC50: 1.65

Record "C[C@@H](OC(N)=O)c1nc(Cn2nc(-c3ccc(Cl)cc3)n(C[C@H](O)C(F)(F)F)c2=O)nn1-c1ncccc1OC(F)(F)F" , field IC50: 5.4

Record CNc1ccncc1-n1nc(Cn2nc(-c3ccc(Cl)cc3)n(C[C@H](O)C(F)(F)F)c2=O)nc1C(C)NC(C)=O (mixture of isomers) [Example 125, hydrochloride] , field IC50: 64

Record "CCNC(=O)OCc1nc(Cn2nc(-c3ccc(Cl)cc3)n(C[C@H](O)C(F)(F)F)c2=O)nn1-c1ccccc1C(F)(F)F" , field IC50: 0.99

Record CC(=O)NC(C)c1nc(Cn2nc(-c3ccc(Cl)cc3)n(C[C@H](O)C(F)(F)F)c2=O)nn1-c1ccccc1Cl (single isomer, unassigned) [Example 65] , field IC50: 2.05

Record CN1C(=O)CCC1c1nc(Cn2nc(-c3ccc(Cl)cc3)n(C[C@H](O)C(F)(F)F)c2=O)nn1CCC(F)(F)F (single isomer, unassigned) [Example 131] , field IC50: 9.55

###

target or test system: human V1a receptor (Homo sapiens, UniProt P37288)
Construct: expressed in transfected cells; host or cells: CHO K1 (ATCC), also stably transfected with a modified aequorin
assay name: Cellular in vitro assay for determining vasopressin receptor activity (V1a, aequorin luminescence)
Assay type: cell-based
condition context: selectivity ratio of IC50 hV2 to IC50 hV1a
Procedure: B-1. Cellular In Vitro Assay for Determining Vasopressin Receptor Activity The identification of agonists and antagonists of the V1a and V2 vasopressin receptors from humans, rats and dogs as well as the quantification of the activity of the compounds of the invention is carried out using recombinant cell lines. […] The bioluminescence of the cell lines is detected using a suitable luminometer [Milligan G, Marshall F, Rees S, Trends in Pharmacological Sciences 17, 235-237 (1996)]. […]
Where a name gives a salt, the structure may show the parent alone.
Measured ratio IC50 hV2/hV1a of individual entries
The answer should be written as a number, with no unit following it.

Recorded ratio IC50 hV2/hV1a, per entry:
molecule: CCNC(=O)OCc1nc(Cn2nc(-c3ccc(Cl)cc3)n(C[C@H](O)C(F)(F)F)c2=O)nn1-c1ccccc1Cl
target or test system: human V1a receptor (Homo sapiens, UniProt P37288)
obs value: 16.6

molecule: CC(N)c1nc(Cn2nc(-c3ccc(Cl)cc3)n(C[C@H](O)C(F)(F)F)c2=O)nn1-c1cccc(F)c1 (single isomer, unassigned) [Example 54]
target or test system: human V1a receptor (Homo sapiens, UniProt P37288)
obs value: 1.4

molecule: C[C@@H](OC(N)=O)c1nc(Cn2nc(-c3ccc(Cl)cc3)n(C[C@H](O)C(F)(F)F)c2=O)nn1-c1ccccc1Cl
target or test system: human V1a receptor (Homo sapiens, UniProt P37288)
obs value: 7.9

molecule: CC(=O)NC(CO)c1nc(Cn2nc(-c3ccc(Cl)cc3)n(C[C@H](O)C(F)(F)F)c2=O)nn1-c1ccccc1Cl (single isomer, unassigned) [Example 93]
target or test system: human V1a receptor (Homo sapiens, UniProt P37288)
obs value: 20.0

molecule: CC(=O)NC1(c2nc(Cn3nc(-c4ccc(Cl)cc4)n(C[C@H](O)C(F)(F)F)c3=O)nn2-c2ccccc2Cl)CC1
target or test system: human V1a receptor (Homo sapiens, UniProt P37288)
obs value: 52.3

Record CC(NS(C)(=O)=O)c1nc(Cn2nc(-c3ccc(Cl)cc3)n(C[C@H](O)C(F)(F)F)c2=O)nn1-c1ccccc1Cl (single isomer, unassigned) [Example 69] , field ratio IC50 hV2/hV1a: 12.4

Record CC(=O)NC(C)c1nc(Cn2nc(-c3ccc(Cl)cc3)n(C[C@H](O)C(F)(F)F)c2=O)nn1-c1ccccc1Cl (single isomer, unassigned) [Example 66] , field ratio IC50 hV2/hV1a: 14.0

Record CNc1ccncc1-n1nc(Cn2nc(-c3ccc(Cl)cc3)n(C[C@H](O)C(F)(F)F)c2=O)nc1C(C)NC(C)=O (single isomer, unassigned) [Example 126] , field ratio IC50 hV2/hV1a: 0.9

Record CNc1ccncc1-n1nc(Cn2nc(-c3ccc(Cl)cc3)n(C[C@H](O)C(F)(F)F)c2=O)nc1C(C)N (mixture of isomers) [Example 124, hydrochloride] , field ratio IC50 hV2/hV1a: 2.2

Record CC(=O)NC(C)c1nc(Cn2nc(-c3ccc(Cl)cc3)n(C[C@H](O)C(F)(F)F)c2=O)nn1-c1ccccc1Cl (single isomer, unassigned) [Example 65] , field ratio IC50 hV2/hV1a: 5.3

###

Measured pIC50 of individual entries
target or test system: human V2 receptor (Homo sapiens)
Sequence (P30518 whole entry): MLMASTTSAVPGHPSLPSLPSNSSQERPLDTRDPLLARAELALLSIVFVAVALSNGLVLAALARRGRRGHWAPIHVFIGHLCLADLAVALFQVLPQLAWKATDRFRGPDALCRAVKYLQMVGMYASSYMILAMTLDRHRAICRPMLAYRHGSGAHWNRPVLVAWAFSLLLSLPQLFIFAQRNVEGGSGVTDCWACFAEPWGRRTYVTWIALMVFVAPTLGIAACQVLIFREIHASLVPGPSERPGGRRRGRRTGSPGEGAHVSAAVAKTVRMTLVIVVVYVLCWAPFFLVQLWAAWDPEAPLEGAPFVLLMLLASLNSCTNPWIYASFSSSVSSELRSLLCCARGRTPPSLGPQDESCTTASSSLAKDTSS
assay name: Cellular in vitro assay for determining vasopressin receptor activity (V2, CRE-luciferase)
condition context: CHO cell line transfected with the human V2 receptor; [Arg8]-vasopressin at EC50 concentration; read-out: IC50 hV2
Hey, just a heads up that pIC50 is the negative log base 10 of the concentration in molar.

molecule: O=C1CC[C@@H](c2nc(Cn3nc(-c4ccc(Cl)cc4)n(C[C@H](O)C(F)(F)F)c3=O)nn2-c2ccccc2Cl)N1 [Example 102]
pIC50: 8.92

# COc1ccccc1-n1nc(Cn2nc(-c3ccc(Cl)cc3)n(C[C@H](O)C(F)(F)F)c2=O)nc1C(C)OC(N)=O (single isomer, unassigned) [Example 39] with human V2 receptor (Homo sapiens): pIC50 is 8.75

# C[C@H](OC(N)=O)c1nc(Cn2nc(-c3ccc(Cl)cc3)n(C[C@H](O)C(F)(F)F)c2=O)nn1-c1c(Cl)cncc1Cl [Example 19] with human V2 receptor (Homo sapiens): pIC50 is 7.20
